Test system: IGR-37 (Melanoma)
Assay: combination Emax (second highest fraction inhibited in the dose matrix, 72 h); higher = more inhibition; extreme values may be limits of the assay
# combination Emax listing for each entry below
Number only, please.

- molecule: "N#Cc1cnc(Nc2cc(NC[C@H]3CNCCO3)c(C(F)(F)F)cn2)cn1 [SRA737] + C=CCn1c(=O)c2cnc(Nc3ccc(N4CCN(C)CC4)cc3)nc2n1-c1cccc(C(C)(C)O)n1 [AZD1775] (first compound max 10 µM, partner max 1 µM)"
  combination Emax: 0.789

Next item in the queue.
In: Give reported combination Emax value for COc1cccc(OCCCN)c1-c1cc(Nc2cnc(C#N)cn2)n[nH]1 [Prexasertib] + C[C@@H]1COCCN1C2=NC(=NC(=C2)C3(CC3)[S@](=N)(=O)C)C4=C5C=CNC5=NC=C4 [AZD6738] (first compound max 1 µM, 7x7, partner max 10 µM)
Out: 0.896

====

Reported combination Emax values for a set of compounds
Test system: LN-405 (Glioblastoma)
Assay: combination Emax (second highest fraction inhibited in the dose matrix, 72 h); higher = more inhibition; extreme values may be limits of the assay
Could you respond with only the numeric value?

Worked examples, 2 compounds total:
- compound: "CC(=O)c1c(C)c2cnc(Nc3ccc(N4CCNCC4)cn3)nc2n(C2CCCC2)c1=O [Palbociclib] + Cn1cnc2c(F)c(Nc3ccc(Br)cc3Cl)c(C(=O)NOCCO)cc21 [Selumetinib] (first compound max 10 µM, 7x7, partner max 10 µM)"
  combination Emax: 0.103
- compound: "Cc1cc2ncnn2cc1Nc1ncc2c(n1)n(C1CCOCC1)c(=O)n2C [AZD7648] + CCN(CCO)CCCOc1ccc2c(Nc3cc(CC(=O)Nc4cccc(F)c4)[nH]n3)ncnc2c1 [AZD2811] (first compound max 10 µM, 7x7, partner max 1 µM)"
  combination Emax: 0.186

In: Supply recorded combination Emax for COc1cccc(OCCCN)c1-c1cc(Nc2cnc(C#N)cn2)n[nH]1 [Prexasertib] + CCc1c2c(nc3ccc(O)cc13)-c1cc3c(c(=O)n1C2)COC(=O)[C@]3(O)CC [SN-38] (first compound max 1 µM, 7x7, partner max 0.3 µM) here.
Out: 0.669

In: Tell us which combination Emax value is on record for COc1cc2ncnc(Nc3ccc(F)c(Cl)c3)c2cc1OCCCN1CCOCC1 [Gefitinib] + CC(C)n1c(=O)n(C)c2cnc3cc(F)c(-c4ccc(OCCCN5CCCCC5)nc4)cc3c21 [AZD1390] (first compound max 10 µM, 7x7, partner max 0.3 µM)
Out: 0.104

In: Name the recorded combination Emax of the item CC1(C)CCC(CN2CCN(c3ccc(C(=O)NS(=O)(=O)c4ccc(NCC5CCOCC5)c([N+](=O)[O-])c4)c(Oc4cnc5[nH]ccc5c4)c3)CC2)=C(c2ccc(Cl)cc2)C1 [Venetoclax] + C[C@@H]1COCCN1C2=NC(=NC(=C2)C3(CC3)[S@](=N)(=O)C)C4=C5C=CNC5=NC=C4 [AZD6738] (first compound max 1 µM, 7x7, partner max 10 µM) in your answer.
Out: 0.483

In: Give the reported value of combination Emax for this record: CCN(CCO)CCCOc1ccc2c(Nc3cc(CC(=O)Nc4cccc(F)c4)[nH]n3)ncnc2c1 [AZD2811] + C[C@@H]1COCCN1C2=NC(=NC(=C2)C3(CC3)[S@](=N)(=O)C)C4=C5C=CNC5=NC=C4 [AZD6738] (first compound max 1 µM, 7x7, partner max 10 µM)
Out: 0.46

In: Note combination Emax for the compound shown: Cc1c2c(nn1C)CSCc1cc(n(C)n1)CSc1cc(c3ccccc3c1)OCCCc1c(C(=O)O)n(C)c3c-2c(Cl)ccc13 [AZD5991] + C=CCn1c(=O)c2cnc(Nc3ccc(N4CCN(C)CC4)cc3)nc2n1-c1cccc(C(C)(C)O)n1 [AZD1775] (first compound max 1 µM, partner max 1 µM)
Out: 0.55

====

Tested on: NCI-H2066 (Squamous Cell Lung Carcinoma)
Test: Bliss excess, mean over the matrix (fraction); higher = more synergy
measurement.name: Bliss excess

- molecule: "C[C@@H](Oc1cc(-c2cnn(C3CCNCC3)c2)cnc1N)c1c(Cl)ccc(F)c1Cl [Crizotinib] + Cn1cnc2c(F)c(Nc3ccc(Br)cc3Cl)c(C(=O)NOCCO)cc21 [Selumetinib] (first compound max 10 µM, 7x7, partner max 10 µM)"
  Bliss excess: -0.0245

In: Tell me Bliss excess reported for C[C@@H](Oc1cc(-c2cnn(C3CCNCC3)c2)cnc1N)c1c(Cl)ccc(F)c1Cl [Crizotinib] + CC1=C(C(=CC=C1)Cl)NC(=O)C2=CN=C(S2)NC3=CC(=NC(=N3)C)N4CCN(CC4)CCO [Dasatinib] (first compound max 10 µM, 7x7, partner max 2 µM)
Out: -0.0202

In: Quickly give me recorded Bliss excess for COc1nnc2ccc(N3CCC(c4ccc(OCCN5CCN(C)C(=O)[C@H]5C)cc4)CC3)nn12 [AZD5153] + CC1(C)CCC(CN2CCN(c3ccc(C(=O)NS(=O)(=O)c4ccc(NCC5CCOCC5)c([N+](=O)[O-])c4)c(Oc4cnc5[nH]ccc5c4)c3)CC2)=C(c2ccc(Cl)cc2)C1 [Venetoclax] (first compound max 1 µM, 7x7, partner max 1 µM)
Out: -0.0919

In: Give Bliss excess for COc1nnc2ccc(N3CCC(c4ccc(OCCN5CCN(C)C(=O)[C@H]5C)cc4)CC3)nn12 [AZD5153] + C=CCn1c(=O)c2cnc(Nc3ccc(N4CCN(C)CC4)cc3)nc2n1-c1cccc(C(C)(C)O)n1 [AZD1775] (first compound max 1 µM, partner max 1 µM)
Out: -0.0503

In: Give the value of Bliss excess reported for the following: COc1cccc(OCCCN)c1-c1cc(Nc2cnc(C#N)cn2)n[nH]1 [Prexasertib] + Cc1cc2ncnn2cc1Nc1ncc2c(n1)n(C1CCOCC1)c(=O)n2C [AZD7648] (first compound max 1 µM, 7x7, partner max 10 µM)
Out: 0.0214

====

We begin with a simple list: items and their reported Bliss excess.
Tested on: SK-MG-1 (Low Grade Glioma)
Test: Bliss excess, mean over the matrix (fraction); higher = more synergy
Kindly provide the number alone.

Reference set, count: 2
- compound: "Cc1c2c(nn1C)CSCc1cc(n(C)n1)CSc1cc(c3ccccc3c1)OCCCc1c(C(=O)O)n(C)c3c-2c(Cl)ccc13 [AZD5991] + Cc1cc2ncnn2cc1Nc1ncc2c(n1)n(C1CCOCC1)c(=O)n2C [AZD7648] (first compound max 1 µM, 7x7, partner max 10 µM)"
  assayed.system: "SK-MG-1 (Low Grade Glioma)"
  measurement.name: "Bliss excess"
  reported: -0.0349
- compound: "CC1(C)CCC(CN2CCN(c3ccc(C(=O)NS(=O)(=O)c4ccc(NCC5CCOCC5)c([N+](=O)[O-])c4)c(Oc4cnc5[nH]ccc5c4)c3)CC2)=C(c2ccc(Cl)cc2)C1 [Venetoclax] + CCN(CCO)CCCOc1ccc2c(Nc3cc(CC(=O)Nc4cccc(F)c4)[nH]n3)ncnc2c1 [AZD2811] (first compound max 1 µM, 7x7, partner max 1 µM)"
  assayed.system: "SK-MG-1 (Low Grade Glioma)"
  measurement.name: "Bliss excess"
  reported: -0.0199

Moving on to the next compound.
In: Complete the entry with Bliss excess for Cc1c2c(nn1C)CSCc1cc(n(C)n1)CSc1cc(c3ccccc3c1)OCCCc1c(C(=O)O)n(C)c3c-2c(Cl)ccc13 [AZD5991] + CN(C)CCCOc1ccc(-c2ccc3ncc4c(c3c2)n(C2CCOCC2)c(=O)n4C)cn1 [AZD0156] (first compound max 1 µM, 7x7, partner max 1 µM)
Out: 0.0058

====

Tested on: GI-ME-N (Neuroblastoma)
Assay: Bliss excess, mean over the matrix (fraction); higher = more synergy
measurement.name: Bliss excess
Answer as a number with no unit attached.

The cases that follow already have their Bliss excess on record.
- compound: "Cc1nc(Nc2ncc(C(=O)Nc3c(C)cccc3Cl)s2)cc(N2CCN(CCO)CC2)n1 [Dasatinib] + CC(=O)Nc1cccc(-n2c(=O)n(C3CC3)c(=O)c3c(Nc4ccc(I)cc4F)n(C)c(=O)c(C)c32)c1 [Trametinib] (first compound max 2 µM, 7x7, partner max 1 µM)"
  measurement.name: "Bliss excess"
  reported: -0.0849
- compound: "COc1cc2c(cc1OCCCCCOc1cc3c(cc1OC)C(=O)N1C=C(C)C[C@H]1C=N3)N=C[C@@H]1CC(C)=CN1C2=O [SG3199] + O=C(c1cc(Cc2n[nH]c(=O)c3ccccc23)ccc1F)N1CCN(C(=O)C2CC2)CC1 [Olaparib] (first compound max 0.001 µM, 7x7, partner max 10 µM)"
  measurement.name: "Bliss excess"
  reported: -0.036

In: Using known records, supply Bliss excess for CN(C)CCCOc1ccc(-c2ccc3ncc4c(c3c2)n(C2CCOCC2)c(=O)n4C)cn1 [AZD0156] + C=CCn1c(=O)c2cnc(Nc3ccc(N4CCN(C)CC4)cc3)nc2n1-c1cccc(C(C)(C)O)n1 [AZD1775] (first compound max 1 µM, partner max 1 µM)
Out: -0.0452
